The binders listed here are annotated with their Kd.
Target: T1, Mouse Fc-human GDF15 (Mu IgG1Fc_Fxa_Hu GDF15) (human)
T1 construct: Whole entry is the fusion: mouse IgG1 Fc, FXa site and linker, mature human GDF15; described as dimeric; also called Murine dimeric IgG1 Fc-human GDF-15 with FXa cleavage site; control human GDF15
T1 chain: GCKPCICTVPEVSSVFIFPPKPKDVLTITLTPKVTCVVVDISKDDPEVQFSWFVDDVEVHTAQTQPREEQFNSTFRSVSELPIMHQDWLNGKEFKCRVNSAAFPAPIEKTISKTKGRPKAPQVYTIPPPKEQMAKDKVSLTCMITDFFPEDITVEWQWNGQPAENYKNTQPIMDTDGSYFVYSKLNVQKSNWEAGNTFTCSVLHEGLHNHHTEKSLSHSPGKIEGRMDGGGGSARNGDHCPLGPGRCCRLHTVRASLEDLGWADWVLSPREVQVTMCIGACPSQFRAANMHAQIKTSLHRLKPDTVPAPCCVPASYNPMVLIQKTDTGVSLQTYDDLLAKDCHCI
Assay: SPR BIAcore T200, 37C; Fc-GDF15 captured, IgG as analyte

[
  {
    "BINDER": "GDF15_014 (antibody, human IgG1, kappa, V domains shown, Tested in bivalent format) VH: QVQLVQSGAEVKKPGSSVKVSCKASGYTFSSYNIDWVRQAPGQGLEWMGQINPINGLAFYNQKFQGRVTITADESTSTAYMELSSLRSEDTAVYYCAREAITTVGAMDYWGQGTLVTVSS VL: EIVLTQSPATLSLSPGERATLSCRTSQNVHNYLAWYQQKPGQAPRLLIYDASNRATGIPARFSGSGSGTDFTLTISSLEPEDFAVYYCQQFWSDPYTFGQGTKVEIKR",
    "Kd": "< 0.01 nM"
  }
]

Consider the binder GDF15_0470 (antibody, human IgG1, kappa, V domains shown, Tested in bivalent format; also called GDF15-470) VH: QVQLVQSGAEVKKPGASVKVSCKASGYPFEGWYIHWVRQAPGQGLEWMGWNNPRTGLTNHAQKFQGRVTMTRDTSISTAYMELSRLRSDDTAVYYCARGVGADAAFDIWGQGTMVTVSS VL: EIVLTQSPATLSLSPGERATLSCRSSQSLLWKHGYNYLDWYQQKPGQAPRLLIYLDRNRAHGIPARFSGSGSGTDFTLTISSLEPEDFAVYYCMQSFETPITFGQGTKVEIKR and give its measured Kd.
< 0.01 nM
